Listed compounds paired with reported inhibition of growth at 10 µM
# System: CCRF-CEM
# Assay: Growth inhibition of human CCRF-CEM cells at 10 uM after 48 hrs by sulforhodamine B assay relative to control
# Format: functional
# Condition set: read-out: GI
API: value field is a number in %; no unit string.

I would be grateful if you could share the reported inhibition of growth at 10 µM for O=C(CCN1c2ccccc2Sc2ccccc21)NCc1cn(CC(=O)c2ccc(Br)cc2)nn1 .
18

What do you have for O=C(CN1c2ccccc2Sc2ccccc21)NCc1cn(CC(=O)c2ccc(Br)cc2)nn1 ?
17

What do you have for O=C(CCN1c2ccccc2Sc2ccccc21)NCc1cn(CC(=O)c2ccc(F)cc2)nn1 ?
20

What do you have for O=C(CCN1c2ccccc2Sc2ccccc21)NCc1cn(CC(=O)c2ccc(Cl)cc2)nn1 ?
19

###

# Tested on: MOLT-4
# Assay: Growth inhibition of human MOLT4 cells at 10 uM after 48 hrs by sulforhodamine B assay relative to control
# Assay type: functional
# Condition set: MOLT-4, 48 h, read-out: GI
Listed compounds paired with reported inhibition of growth at 10 µM
Report field: quantity (unit follows the number).

# example entries with known answers
Chemical smiles: O=C(CN1c2ccccc2Sc2ccccc21)NCc1cn(CC(=O)c2ccc(Br)cc2)nn1
inhibition of growth at 10 µM: 42%

Chemical smiles: O=C(CCN1c2ccccc2Sc2ccccc21)NCc1cn(CC(=O)c2ccc(Br)cc2)nn1
inhibition of growth at 10 µM: 34%

Chemical smiles: O=C(CCN1c2ccccc2Sc2ccccc21)NCc1cn(CC(=O)c2ccc(Cl)cc2)nn1
inhibition of growth at 10 µM: 40%

Now let's try a different one.
I would be grateful if you could share the reported inhibition of growth at 10 µM for O=C(CCN1c2ccccc2Sc2ccccc21)NCc1cn(CC(=O)c2ccc(F)cc2)nn1 .
38%

###

Listed compounds paired with reported inhibition of growth at 10 µM
# Test system: MDA-MB-231
# Assay: Growth inhibition of human MDA-MB-231 cells at 10 uM after 48 hrs by sulforhodamine B assay relative to control
# Format: functional
# Condition set: MDA-MB-231, 48 h, read-out: GI
API: value field is a number in %; no unit string.

I would be grateful if you could share the reported inhibition of growth at 10 µM for O=C(CN1c2ccccc2Sc2ccccc21)NCc1cn(CC(=O)c2ccc(Br)cc2)nn1 .
9

What do you have for O=C(CCN1c2ccccc2Sc2ccccc21)NCc1cn(CC(=O)c2ccc(Br)cc2)nn1 ?
14

What do you have for O=C(CCN1c2ccccc2Sc2ccccc21)NCc1cn(CC(=O)c2ccc(Cl)cc2)nn1 ?
4

What do you have for O=C(CCN1c2ccccc2Sc2ccccc21)NCc1cn(CC(=O)c2ccc(F)cc2)nn1 ?
3

###

# Study system: Protein farnesyltransferase (Homo sapiens, UniProt P49354+P49356)
# Assay: Inhibition of partially purified human recombinant FTase at 100 uM measured for 15 mins by automated fluorescence based assay relative to control
# Assay type: protein-complex assay
Value type: inhibition

# example entries with known answers
Chemical smiles: O=C(CN1c2ccccc2Sc2ccccc21)NCc1cn(CC(=O)N2c3ccccc3Sc3ccccc32)nn1
inhibition: 0%

Chemical smiles: O=C(CN1c2ccccc2Sc2ccccc21)NCc1cn(CC(=O)c2ccc(F)cc2)nn1
inhibition: 0%

Chemical smiles: O=C(CCN1c2ccccc2Sc2ccccc21)NCc1cn(CC(=O)N2c3ccccc3Sc3ccccc32)nn1
inhibition: 0%

I would be grateful if you could share the reported inhibition for COc1ccc(C(=O)Cn2cc(COC(=O)CCN3c4ccccc4Sc4ccccc43)nn2)cc1 .
22.3%

What do you have for N#Cc1ccc(C(=O)Cn2cc(COC(=O)CCN3c4ccccc4Sc4ccccc43)nn2)cc1 ?
55.1%

What do you have for O=C(CN1c2ccccc2Sc2ccccc21)NCc1cn(CC(=O)c2ccc(Cl)cc2)nn1 ?
40%

What do you have for O=C(CCN1c2ccccc2Sc2ccccc21)NCc1cn(CC(=O)c2ccc(F)cc2)nn1 ?
52.6%
